# collection of pKi values tested on Sodium-dependent noradrenaline transporter (Homo sapiens)
# Sequence (P23975 whole entry): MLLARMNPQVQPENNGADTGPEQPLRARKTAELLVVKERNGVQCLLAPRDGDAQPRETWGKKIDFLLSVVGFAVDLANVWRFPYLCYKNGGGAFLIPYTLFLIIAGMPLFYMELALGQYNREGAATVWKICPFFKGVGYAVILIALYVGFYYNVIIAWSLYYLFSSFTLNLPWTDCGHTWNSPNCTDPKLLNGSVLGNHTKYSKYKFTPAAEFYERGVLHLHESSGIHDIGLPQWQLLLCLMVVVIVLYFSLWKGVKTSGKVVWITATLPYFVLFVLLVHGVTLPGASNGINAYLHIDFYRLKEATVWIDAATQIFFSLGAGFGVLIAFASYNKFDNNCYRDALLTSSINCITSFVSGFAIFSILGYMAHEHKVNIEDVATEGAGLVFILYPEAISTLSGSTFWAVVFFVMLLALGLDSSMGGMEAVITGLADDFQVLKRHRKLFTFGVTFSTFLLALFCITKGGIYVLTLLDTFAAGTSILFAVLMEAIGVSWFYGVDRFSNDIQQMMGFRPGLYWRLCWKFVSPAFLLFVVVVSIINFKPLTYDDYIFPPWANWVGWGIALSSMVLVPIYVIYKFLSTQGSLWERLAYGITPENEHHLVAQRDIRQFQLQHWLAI
The meaning of pKi here: minus log10 of the concentration in molar units.

Below, each entry is followed by its recorded pKi result.
{"columns": ["Test Smiles", "pKi"],
 "data": [
  ["Cc1cccc(F)c1Oc1cccc(F)c1OC1CCNCC1", 6.49],
  ["Fc1cccc(Cl)c1Oc1cccc(F)c1O[C@H]1CCNC1", 6.00],
  ["Fc1ccccc1Oc1cccc(F)c1OC1CCNCC1", 6.31]
]}

# pKi of Fc1cccc(Oc2ccccc2Cl)c1OC1CNC1 = 6.70

Source: ChEMBL document CHEMBL1641456
